# credit: paper PMC10424176

test: Chamelogk, chromatographic chameleonicity descriptor (PLRP-S RP-HPLC)
Assay type: physicochemical
condition: Exp. minus Ext. log k' PLRP-S at 100% MeCN; linear fit at 50, 60, 70% MeCN; 20 mM ammonium acetate pH 7.0; 30 °C
Binning rule for recorded Chamelogk: bin 0 (below 0.4), bin 1 (0.4 to below 0.7), bin 2 (0.7 or more)

1. Nc1cccc2c1C(=O)N(C1CCC(=O)NC1=O)C2=O (centres unmarked) [pomalidomide] ... bin 0
2. CC(C)c1nc(CN(C)C(=O)N[C@H](C(=O)N[C@@H](Cc2ccccc2)C[C@H](O)[C@H](Cc2ccccc2)NC(=O)OCc2cncs2)C(C)C)cs1 [ritonavir] ... bin 1
3. COc1cc(C(=O)NCCOCCOCCOCCC(=O)Nc2cccc3c2C(=O)N(C2CCC(=O)NC2=O)C3=O)ccc1Nc1ncc(C(F)(F)F)c(Oc2cccc3c2C(=O)CC3)n1 (centres unmarked) [BI-3663] ... bin 1
4. C=C/C=C/C[C@@H](C)[C@@H](O)[C@H]1C(=O)N[C@@H](CC)C(=O)N(C)CC(=O)N(C)[C@@H](CC(C)C)C(=O)N[C@@H](C(C)C)C(=O)N(C)[C@@H](CC(C)C)C(=O)N[C@@H](C)C(=O)N[C@H](C)C(=O)N(C)[C@@H](CC(C)C)C(=O)N(C)[C@@H](CC(C)C)C(=O)N(C)[C@@H](C(C)C)C(=O)N1C [voclosporin] ... bin 2
5. CC(=O)N[C@H](C(=O)N1C[C@H](O)C[C@H]1C(=O)NCc1ccc(-c2scnc2C)cc1)C(C)(C)SCCCCCCNC(=O)C[C@@H]1N=C(c2ccc(Cl)cc2)c2c(sc(C)c2C)-n2c(C)nnc21 [BRD4 degrader AT1] ... bin 2
6. Cc1sc2c(c1C)C(c1ccc(Cl)cc1)=N[C@@H](CC(=O)Nc1ccc(O)cc1)c1nnc(C)n1-2 [OTX-015] ... bin 1
7. Cc1ncsc1-c1ccc(CNC(=O)[C@@H]2C[C@@H](O)CN2C(=O)[C@@H](NC(=O)C2(C#N)CC2)C(C)(C)C)c(O)c1 [OH-VH298 (S,R,S)] ... bin 1
8. CO[C@H]1C[C@@H]2CC[C@@H](C)[C@@](O)(O2)C(=O)C(=O)N2CCCC[C@H]2C(=O)O[C@H]([C@H](C)C[C@@H]2CC[C@@H](O)[C@H](OC)C2)CC(=O)[C@H](C)/C=C(\C)[C@@H](O)[C@@H](OC)C(=O)[C@H](C)C[C@H](C)/C=C/C=C/C=C/1C [sirolimus] ... bin 0
9. Cc1sc2c(c1C)C(c1ccc(Cl)cc1)=N[C@@H](CC(=O)NCCCCCCCCNC(=O)COc1cccc3c1C(=O)N(C1CCC(=O)NC1=O)C3=O)c1nnc(C)n1-2 (some centres unmarked) [dBET6] ... bin 2
10. c1ccc2ccccc2c1 [naphthalene] ... bin 0
11. CCCN1C(=O)c2ccc(Cl)cc2Nc2ncccc21 [BI-0115] ... bin 0
12. COc1cc(C(=O)NCCOCCOCCOCC(=O)N[C@H](C(=O)N2C[C@H](O)C[C@H]2C(=O)NCc2ccc(-c3scnc3C)cc2)C(C)(C)C)ccc1Nc1ncc(C(F)(F)F)c(Oc2cccc3c2C(=O)CC3)n1 [BI-0319] ... bin 2
13. O=C(CCCCC(=O)NCCN1C(=O)c2cccc3c(Sc4ccc(Br)cc4)ccc(c23)C1=O)NCCCCCCNc1cccc2c1C(=O)N(C1CCC(=O)NC1=O)C2=O (centres unmarked) [PROTAC Mcl degrader-1] ... bin 2
14. CC(C)(C)NC(=O)[C@@H]1C[C@@H]2CCCC[C@@H]2CN1C[C@@H](O)[C@H](Cc1ccccc1)NC(=O)[C@H](CC(N)=O)NC(=O)c1ccc2ccccc2n1 [saquinavir] ... bin 2
15. Nc1ccc(OCCOCCOCCOCCNc2cccc3c2C(=O)N(C2CCC(=O)NC2=O)C3=O)cc1 (centres unmarked) [PEG4-PH-NH2-pomalidomide] ... bin 0
16. Cc1ncsc1-c1ccc(CNC(=O)[C@@H]2C[C@@H](O)CN2C(=O)[C@@H](NC(=O)COCCOCCNC(=O)COc2cnc3c(C4CCN(C(=O)c5ccc(OC(F)(F)F)cc5)CC4)ncnc3c2)C(C)(C)C)cc1 [PROTAC-1] ... bin 2
17. CC(=O)N[C@H](C(=O)N1C[C@H](O)C[C@H]1C(=O)NCc1ccc(-c2scnc2C)cc1O)C(C)(C)C [phenol-VH032 (S,R,S)] ... bin 0
18. c1ccc(-c2ccc(C(c3ccccc3)n3ccnc3)cc2)cc1 (centres unmarked) [bifonazole] ... bin 1
19. CN1C(=O)CN=C(c2ccccc2)c2cc(Cl)ccc21 [diazepam] ... bin 0
20. CC[C@@H]1/C=C(\C)C[C@H](C)C[C@H](OC)[C@H]2O[C@@](O)(C(=O)C(=O)N3CCCC[C@H]3C(=O)O[C@H](/C(C)=C/[C@@H]3CC[C@H](Cl)[C@H](OC)C3)[C@H](C)[C@@H](O)CC1=O)[C@H](C)C[C@@H]2OC [pimecrolimus] ... bin 1

----------
test: physchem
Format: physicochemical
condition: pH 7
endpoint: chromatographic logD

1. CC(C)c1nc(CN(C)C(=O)N[C@H](C(=O)N[C@@H](Cc2ccccc2)C[C@H](O)[C@H](Cc2ccccc2)NC(=O)OCc2cncs2)C(C)C)cs1 [ritonavir] ... 3.29
2. Cc1ncsc1-c1ccc(CNC(=O)[C@@H]2C[C@@H](O)CN2C(=O)[C@@H](NC(=O)COCCOCCOCCNC(=O)C[C@@H]2N=C(c3ccc(Cl)cc3)c3c(sc(C)c3C)-n3c(C)nnc32)C(C)(C)C)cc1 [MZ1] ... 1.77
3. CC[C@@H]1/C=C(\C)C[C@H](C)C[C@H](OC)[C@H]2O[C@@](O)(C(=O)C(=O)N3CCCC[C@H]3C(=O)O[C@H](/C(C)=C/[C@@H]3CC[C@H](Cl)[C@H](OC)C3)[C@H](C)[C@@H](O)CC1=O)[C@H](C)C[C@@H]2OC [pimecrolimus] ... 6.52
4. Cc1ncsc1-c1ccc(CNC(=O)[C@@H]2C[C@H](O)CN2C(=O)[C@@H](NC(=O)COCCOCCOCCNC(=O)C[C@@H]2N=C(c3ccc(Cl)cc3)c3c(sc(C)c3C)-n3c(C)nnc32)C(C)(C)C)cc1 [cisMZ1] ... 1.87
5. CO[C@H]1C[C@@H]2CC[C@@H](C)[C@@](O)(O2)C(=O)C(=O)N2CCCC[C@H]2C(=O)O[C@H]([C@H](C)C[C@@H]2CC[C@@H](O)[C@H](OC)C2)CC(=O)[C@H](C)/C=C(\C)[C@@H](O)[C@@H](OC)C(=O)[C@H](C)C[C@H](C)/C=C/C=C/C=C/1C [sirolimus] ... 4.97
6. CO[C@H]1C[C@@H]2CC[C@@H](C)[C@@](O)(O2)C(=O)C(=O)N2CCCC[C@H]2C(=O)O[C@H]([C@H](C)C[C@@H]2CC[C@@H](OCCO)[C@H](OC)C2)CC(=O)[C@H](C)/C=C(\C)[C@@H](O)[C@@H](OC)C(=O)[C@H](C)C[C@H](C)/C=C/C=C/C=C/1C [everolimus] ... 4.86

----------
Measured Δ log kW^IAM, listed per entry.
test: log kW^IAM and Δ log kW^IAM (IAM chromatography)
Assay type: physicochemical
condition: polarity; from log kW^IAM and BRlogD (eq 4, 5)
endpoint: Δ log kW^IAM

1. CC[C@@H]1/C=C(\C)C[C@H](C)C[C@H](OC)[C@H]2O[C@@](O)(C(=O)C(=O)N3CCCC[C@H]3C(=O)O[C@H](/C(C)=C/[C@@H]3CC[C@H](Cl)[C@H](OC)C3)[C@H](C)[C@@H](O)CC1=O)[C@H](C)C[C@@H]2OC ... -1.62
2. CO[C@H]1C[C@@H]2CC[C@@H](C)[C@@](O)(O2)C(=O)C(=O)N2CCCC[C@H]2C(=O)O[C@H]([C@H](C)C[C@@H]2CC[C@@H](OCCO)[C@H](OC)C2)CC(=O)[C@H](C)/C=C(\C)[C@@H](O)[C@@H](OC)C(=O)[C@H](C)C[C@H](C)/C=C/C=C/C=C/1C ... 0.71
3. CO[C@H]1C[C@@H]2CC[C@@H](C)[C@@](O)(O2)C(=O)C(=O)N2CCCC[C@H]2C(=O)O[C@H]([C@H](C)C[C@@H]2CC[C@@H](O)[C@H](OC)C2)CC(=O)[C@H](C)/C=C(\C)[C@@H](O)[C@@H](OC)C(=O)[C@H](C)C[C@H](C)/C=C/C=C/C=C/1C ... 0.42
4. CCC[C@H](NC(=O)[C@@H]1[C@H]2CCC[C@H]2CN1C(=O)[C@@H](NC(=O)[C@@H](NC(=O)c1cnccn1)C1CCCCC1)C(C)(C)C)C(=O)C(=O)NC1CC1 ... 0.75
5. CC(C)(C)NC(=O)[C@@H]1C[C@@H]2CCCC[C@@H]2CN1C[C@@H](O)[C@H](Cc1ccccc1)NC(=O)[C@H](CC(N)=O)NC(=O)c1ccc2ccccc2n1 ... 1.85
6. Cc1sc2c(c1C)C(c1ccc(Cl)cc1)=N[C@@H](CC(=O)Nc1ccc(OCCOCCOCCOCCNc3cccc4c3C(=O)N(C3CCC(=O)NC3=O)C4=O)cc1)c1nnc(C)n1-2 (some centres unmarked) ... 1.31
7. COC(=O)N[C@H](C(=O)N[C@@H](Cc1ccccc1)[C@@H](O)CN(Cc1ccc(-c2ccccn2)cc1)NC(=O)[C@@H](NC(=O)OC)C(C)(C)C)C(C)(C)C ... 0.87
8. Cc1ncsc1-c1ccc(CNC(=O)[C@@H]2C[C@@H](O)CN2C(=O)[C@@H](NC(=O)COCCOCCOCCNC(=O)C[C@@H]2N=C(c3ccc(Cl)cc3)c3c(sc(C)c3C)-n3c(C)nnc32)C(C)(C)C)cc1 ... 2.24
9. Cc1ncsc1-c1ccc(CNC(=O)[C@@H]2C[C@H](O)CN2C(=O)[C@@H](NC(=O)COCCOCCOCCNC(=O)C[C@@H]2N=C(c3ccc(Cl)cc3)c3c(sc(C)c3C)-n3c(C)nnc32)C(C)(C)C)cc1 [cisMZ1] ... 2.20
10. CC(C)c1nc(CN(C)C(=O)N[C@H](C(=O)N[C@@H](Cc2ccccc2)C[C@H](O)[C@H](Cc2ccccc2)NC(=O)OCc2cncs2)C(C)C)cs1 ... 1.02
11. Cc1c(O)cccc1C(=O)N[C@@H](CSc1ccccc1)[C@H](O)CN1C[C@H]2CCCC[C@H]2C[C@H]1C(=O)NC(C)(C)C ... -0.63
